The origin of these recorded values is patent US12595253B2.

Assay: Liver microsomes study, Phase I stability (HLM)
Type: in vitro ADME, human
Conditions: pH 7.4; human liver microsomes 0.5 mg/mL, 1 μM test article; read-out: HLM Clint
Procedure: Commercially available liver microsomes (MsLM vendor: XENOTECH; RLM, DLM, MkL, HLM vendor: Corning) were used for study the Phase I stability of test articles. […] 80 μL of supernatant are taken into 96-well assay plates pre-added with 160 μL ultrapure water, and then analyzed by LC/MS/MS(Shimadzu LC30AD & API4000/API5000)). Concentrations of test articles, control compounds in the samples were determined by using LC/MS/MS) method. […]
propertyLabel: microsomal CLint at 1 μM (µL/min/mg)

Observe how each entry below is paired with its result.
molecule	propertyLabel	unitLabel	recordedMeasurement
Cc1cnc(Nc2cnn(C(C)C(F)(F)F)c2)nc1-c1ccc(C(=O)NCC#N)cc1 (stereo not shown) [Example 112]	microsomal CLint at 1 μM	µL/min/mg	49.1
COCCNC(=O)c1ccc(-c2nc(Nc3cnn(C)c3)ncc2C)cc1 [Example 6]	microsomal CLint at 1 μM	µL/min/mg	6.6

I: CC(C)(C)C(=O)N1CCC(n2cc(Nc3ncc(Cl)c(-c4ccc(C(=O)NCC#N)cc4)n3)cn2)CC1 [Example 98]
II: Cc1cnc(Nc2cnn(C3CCN(C(=O)C4(C)CC4)CC3)c2)nc1-c1ccc(C(=O)NCC#N)cc1 [Example 38]
In: When I and II are compared, which has the higher number for microsomal CLint at 1 μM? Label of pick, please.
Out: I

* * *

biological target: JAK2V617F (Homo sapiens, UniProt O60674, V617F); assay: JAK2V617F microfluidic kinase assay (Caliper EZ Reader II, FAM labeled peptide substrate); conditions: JAK2V617F 2.5 nM, 1 mM ATP
Sequence (O60674 whole entry V617F): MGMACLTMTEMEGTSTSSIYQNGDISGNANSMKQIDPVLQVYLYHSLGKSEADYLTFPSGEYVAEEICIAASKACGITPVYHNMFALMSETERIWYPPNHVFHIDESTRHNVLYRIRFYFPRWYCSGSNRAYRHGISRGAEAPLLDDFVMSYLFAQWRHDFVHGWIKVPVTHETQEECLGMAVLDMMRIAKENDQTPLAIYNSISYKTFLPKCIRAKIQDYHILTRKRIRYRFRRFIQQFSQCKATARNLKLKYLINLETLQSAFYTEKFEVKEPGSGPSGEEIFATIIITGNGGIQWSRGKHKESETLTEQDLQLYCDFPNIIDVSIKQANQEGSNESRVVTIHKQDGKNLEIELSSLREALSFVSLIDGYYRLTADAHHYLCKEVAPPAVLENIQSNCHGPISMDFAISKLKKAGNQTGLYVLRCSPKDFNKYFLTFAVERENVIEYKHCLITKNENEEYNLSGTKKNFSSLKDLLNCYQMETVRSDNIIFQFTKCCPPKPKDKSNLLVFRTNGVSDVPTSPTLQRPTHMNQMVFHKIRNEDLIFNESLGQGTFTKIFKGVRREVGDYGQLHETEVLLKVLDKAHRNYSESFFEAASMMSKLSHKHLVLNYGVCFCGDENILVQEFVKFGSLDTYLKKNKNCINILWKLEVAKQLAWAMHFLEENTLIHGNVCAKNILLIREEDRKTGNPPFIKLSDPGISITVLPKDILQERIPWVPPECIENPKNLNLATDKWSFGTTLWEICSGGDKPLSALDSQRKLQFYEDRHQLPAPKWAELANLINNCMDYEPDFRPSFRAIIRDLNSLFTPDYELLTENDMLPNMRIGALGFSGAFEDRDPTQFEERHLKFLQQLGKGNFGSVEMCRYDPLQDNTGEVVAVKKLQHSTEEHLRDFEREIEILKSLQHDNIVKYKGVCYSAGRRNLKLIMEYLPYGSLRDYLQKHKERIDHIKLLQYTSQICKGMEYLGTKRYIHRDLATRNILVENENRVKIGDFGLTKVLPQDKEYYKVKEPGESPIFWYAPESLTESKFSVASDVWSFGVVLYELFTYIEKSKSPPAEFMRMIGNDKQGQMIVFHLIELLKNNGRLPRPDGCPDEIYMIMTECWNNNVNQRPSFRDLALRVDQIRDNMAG
pIC50: −log10 of the molar value.
propertyLabel: pIC50

a: Cc1cnc(Nc2cnn(C3CCOCC3)c2)nc1-c1ccc(C(=O)NCC(C)(C)C#N)cc1
b: Cc1cnc(Nc2cnn(C3CCN(C(=O)[C@H]4CC4(C)C)CC3)c2)nc1-c1ccc(C(=O)NCC#N)cc1
In: Between a and b , which one has the lower reported pIC50 value? Use the label to indicate which entry you chose.
Out: a

a: N#CCNC(=O)c1ccc(-c2nc(Nc3cnn(C4CCOCC4)c3)ncc2C(F)(F)F)cc1
b: Cc1cnc(Nc2cnn(C3CCN(CC#N)CC3)c2)nc1-c1ccc(C(=O)NCC#N)cc1
In: Identify the entry with the larger pIC50. Options: a and b Answer by stating the label of the chosen item.
Out: b
(b: 7.42, a: 6.55)

* * *

target: JAK2V617F (Homo sapiens, UniProt O60674, V617F); test: JAK2V617F microfluidic kinase assay (Caliper EZ Reader II, FAM labeled peptide substrate); settings: JAK2V617F 2.5 nM, 1 mM ATP
propertyLabel: IC50 (nM)

compound	targetSystem	unitLabel	IC50
Cc1cnc(Nc2cnn([C@H]3CC[C@H](C#N)CC3)c2)nc1-c1ccc(C(=O)NCC#N)cc1 [Example 147]	JAK2V617F (Homo sapiens, UniProt O60674, V617F)	nM	19.9
CC(=O)N1CC(n2cc(Nc3ncc(C)c(-c4ccc(C(=O)N[C@@H](C)C#N)cc4)n3)cn2)C1 [Example 157]	JAK2V617F (Homo sapiens, UniProt O60674, V617F)	nM	33.1
Cc1cnc(Nc2cnn(C3CC(C#N)C3)c2)nc1-c1ccc(C(=O)NCC#N)cc1 (centres unmarked) [Example 106]	JAK2V617F (Homo sapiens, UniProt O60674, V617F)	nM	23.7

I: CCC[C@@H](C#N)NC(=O)c1ccc(-c2nc(Nc3cnn(C4CC4)c3)ncc2C)cc1 [Example 202]
II: Cc1cnc(Nc2cnn(C3C[C@@H](C)O[C@@H](C)C3)c2)nc1-c1ccc(C(=O)NCC#N)cc1 (some centres unmarked) [Example 68]
III: Cc1cnc(Nc2cnn(C3CCN(C(=O)C4CC4)CC3)c2)nc1-c1ccc(C(=O)NCC#N)cc1 [Example 24]
IV: Cc1cnc(Nc2cnn(C3CCOCC3)c2)nc1-c1ccc(C(=O)NCCC(F)(F)F)cc1 [Example 77]
In: Please give the order of these compounds when sorted by IC50, largest value leading. Write out the labels following the order that was asked for.
Out: IV, I, II, III
